# METHOD: qHTS assay for cell viability of HEK293 cells (AID 743288); further: on the % scale 0 is the no-effect control and ±100 the full control effect; nearly all actives have a fitted effect of over 50% in size
# CONDITION DETAILS: ATP luminescence (CellTiter-Glo), 18 h; hits give low values
# Text: National Center for Advancing Translational Sciences [NCATS] NIH Chemical Genomics Center [NCGC] U.S. Environmental Protection Agency [EPA] National Institutes of Environmental Health Sciences [NIEHS] National Toxicology Program [NTP] […] The CellTiter-Glo Luminescent Cell Viability Assay (Promega, Madison, WI) is a homogeneous method to determine the number of viable cells in culture based on quantitation of the ATP present, which signals the presence of metabolically active cells. […]
Records with an inconclusive call do not appear.

- COMPOUND: "NS(=O)(=O)c1cc2c(cc1Cl)NC=NS2(=O)=O"
  UNIT LABEL: "%"
  max response: -1.12
- COMPOUND: "O=C1CCC(N2C(=O)c3ccccc3C2=O)C(=O)N1 (stereo unspecified)"
  UNIT LABEL: "%"
  max response: -7.06
- COMPOUND: "COc1ccc2nc(S(=O)Cc3ncc(C)c(OC)c3C)[nH]c2c1 (stereo unspecified)"
  UNIT LABEL: "%"
  max response: -16.7
- COMPOUND: "CC(C)(Sc1ccc(CCN(CCCCC2CCCCC2)C(=O)NC2CCCCC2)cc1)C(=O)O"
  UNIT LABEL: "%"
  max response: -6.91
- COMPOUND: "C[C@]12CCC(=O)C=C1CC[C@@H]1[C@@H]2[C@@H](O)C[C@@]2(C)[C@H]1CC[C@]2(O)C(=O)CO"
  UNIT LABEL: "%"
  max response: -17.5
- COMPOUND: "Cc1c(C)c2c(c(C)c1O)CCC(C)(COc1ccc(CC3SC(=O)NC3=O)cc1)O2 (stereo unspecified)"
  UNIT LABEL: "%"
  max response: -10.3
- COMPOUND: "O=NN(CCCl)C(=O)NCCCl"
  UNIT LABEL: "%"
  max response: -8.57
- COMPOUND: "Cc1[nH]c(=O)c(C#N)cc1-c1ccncc1"
  UNIT LABEL: "%"
  max response: 7.32
- COMPOUND: "Cc1ccccc1C(OCCN(C)C)c1ccccc1 (stereo unspecified)"
  UNIT LABEL: "%"
  max response: -14.1
- COMPOUND: "CNC[C@H](O)c1cccc(O)c1"
  UNIT LABEL: "%"
  max response: -12.3
- COMPOUND: "O=c1[nH]cnc2[nH]ncc12"
  UNIT LABEL: "%"
  max response: 10.5

Origin of measurements: PubChem BioAssay (NCATS)
